target or system: Poly [ADP-ribose] polymerase 1 (Homo sapiens, UniProt P09874)
Sequence (P09874 whole entry): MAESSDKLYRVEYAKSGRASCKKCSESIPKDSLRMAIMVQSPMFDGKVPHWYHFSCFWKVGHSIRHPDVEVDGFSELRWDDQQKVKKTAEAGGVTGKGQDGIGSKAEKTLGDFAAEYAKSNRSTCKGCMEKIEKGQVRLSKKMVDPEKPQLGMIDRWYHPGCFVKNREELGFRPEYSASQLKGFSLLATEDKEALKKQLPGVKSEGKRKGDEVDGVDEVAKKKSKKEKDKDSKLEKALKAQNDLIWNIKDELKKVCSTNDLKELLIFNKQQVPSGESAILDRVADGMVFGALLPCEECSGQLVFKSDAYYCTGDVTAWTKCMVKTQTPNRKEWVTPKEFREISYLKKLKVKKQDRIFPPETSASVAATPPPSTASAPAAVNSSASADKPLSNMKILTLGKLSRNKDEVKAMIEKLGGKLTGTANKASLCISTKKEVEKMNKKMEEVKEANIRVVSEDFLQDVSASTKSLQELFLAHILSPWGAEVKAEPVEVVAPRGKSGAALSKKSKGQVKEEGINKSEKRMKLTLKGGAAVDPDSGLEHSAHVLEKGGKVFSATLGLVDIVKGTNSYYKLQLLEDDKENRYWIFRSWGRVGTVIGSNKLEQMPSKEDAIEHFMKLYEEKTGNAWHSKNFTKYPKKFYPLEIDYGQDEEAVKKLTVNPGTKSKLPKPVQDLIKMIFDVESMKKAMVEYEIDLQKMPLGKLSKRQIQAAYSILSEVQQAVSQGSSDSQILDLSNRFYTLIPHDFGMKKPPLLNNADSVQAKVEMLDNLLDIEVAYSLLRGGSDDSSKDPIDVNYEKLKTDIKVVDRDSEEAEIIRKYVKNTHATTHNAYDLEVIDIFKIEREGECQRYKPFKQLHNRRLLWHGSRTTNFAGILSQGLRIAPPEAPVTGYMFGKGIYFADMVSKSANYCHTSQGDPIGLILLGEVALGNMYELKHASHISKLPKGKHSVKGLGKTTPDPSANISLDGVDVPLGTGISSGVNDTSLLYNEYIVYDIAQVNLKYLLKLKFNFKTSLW
test protocol: Inhibition of recombinant human PARP1 expressed in Escherichia coli assessed as reduction in auto-PARylation using histone as substrate measured after 45 mins in presence of biotinylated-NAD+ by ELISA
endpoint: pIC50
Note on units: pIC50 is unitless, being -log10 of a concentration expressed in mol/L.

IN: GET /values?readout=pIC50&item= `C[C@@H]1CN(c2cc(F)c3c(c2)N(C)C(=O)C32CCN(c3nc4c(c(=O)[nH]3)CCCN4C)CC2)C[C@H](C)O1`
OUT: 4.74

====

test protocol: Efflux ratio of permeability across basolateral to apical side over apical to basolateral side in MDCK2 cells
Type: ADME, cell-based, Canis lupus familiaris, MDCK-II
condition context: dog, mdck
endpoint: efflux ratio

molecule	efflux ratio
CN1CCCc2c1nc(N1CCC3(CC1)C(=O)N(C)c1cc(N4CCOCC4)cc(F)c13)[nH]c2=O	1.9

[a] CN1CCCc2c1nc(N1CCC3(CC1)C(=O)N(CC#N)c1cc(F)cc(F)c13)[nH]c2=O
[b] COc1cc(F)c2c(c1)N(C)C(=O)C21CCN(c2nc3c(c(=O)[nH]2)CCCN3C)CC1
[c] CN1CCCc2c1nc(N1CCC3(CC1)C(=O)N(CC(O)CO)c1cc(F)cc(F)c13)[nH]c2=O (stereo not drawn)
[d] CN1CCCc2c1nc(N1CCC3(CC1)C(=O)N(C)c1cc(OCC(=O)O)cc(F)c13)[nH]c2=O
IN: Let's sort these by efflux ratio, smallest first. Go ahead? As an answer, provide the labels arranged in the order called for.
OUT: d, b, a, c

====

test protocol: Oral bioavailability in Sprague-Dawley rat at 3 mg/kg
Assay type: ADME, organism-based
condition context: in vivo
endpoint: bioavailability (%)
Note: unit % is implicit; provide only the numeric part.

IN: Give its bioavailability value. Item: `C[C@@H]1CN(c2cc(F)c3c(c2)N(C)C(=O)C32CCN(c3nc4c(c(=O)[nH]3)CCCN4C)CC2)C[C@H](C)O1`
OUT: 100

====

test protocol: Half life in ICR mouse at 50 mg/kg, po
Assay type: ADME, organism-based
condition context: in vivo
endpoint: half-life (min)

[A] CN1CCN(c2cc(F)c3c(c2)N(C)C(=O)C32CCN(c3nc4c(c(=O)[nH]3)CCCN4C)CC2)CC1
[B] C[C@@H]1CN(c2cc(F)c3c(c2)N(C)C(=O)C32CCN(c3nc4c(c(=O)[nH]3)CCCN4C)CC2)C[C@H](C)O1
IN: Which value of half-life is greater, the one for A or the one for B ? Kindly state the label of the option you pick.
OUT: A
(A: 240 min, B: 108 min)

====

target or system: Poly [ADP-ribose] polymerase tankyrase-2 (Homo sapiens, UniProt Q9H2K2)
Sequence (Q9H2K2 whole entry, the tested form may be a part): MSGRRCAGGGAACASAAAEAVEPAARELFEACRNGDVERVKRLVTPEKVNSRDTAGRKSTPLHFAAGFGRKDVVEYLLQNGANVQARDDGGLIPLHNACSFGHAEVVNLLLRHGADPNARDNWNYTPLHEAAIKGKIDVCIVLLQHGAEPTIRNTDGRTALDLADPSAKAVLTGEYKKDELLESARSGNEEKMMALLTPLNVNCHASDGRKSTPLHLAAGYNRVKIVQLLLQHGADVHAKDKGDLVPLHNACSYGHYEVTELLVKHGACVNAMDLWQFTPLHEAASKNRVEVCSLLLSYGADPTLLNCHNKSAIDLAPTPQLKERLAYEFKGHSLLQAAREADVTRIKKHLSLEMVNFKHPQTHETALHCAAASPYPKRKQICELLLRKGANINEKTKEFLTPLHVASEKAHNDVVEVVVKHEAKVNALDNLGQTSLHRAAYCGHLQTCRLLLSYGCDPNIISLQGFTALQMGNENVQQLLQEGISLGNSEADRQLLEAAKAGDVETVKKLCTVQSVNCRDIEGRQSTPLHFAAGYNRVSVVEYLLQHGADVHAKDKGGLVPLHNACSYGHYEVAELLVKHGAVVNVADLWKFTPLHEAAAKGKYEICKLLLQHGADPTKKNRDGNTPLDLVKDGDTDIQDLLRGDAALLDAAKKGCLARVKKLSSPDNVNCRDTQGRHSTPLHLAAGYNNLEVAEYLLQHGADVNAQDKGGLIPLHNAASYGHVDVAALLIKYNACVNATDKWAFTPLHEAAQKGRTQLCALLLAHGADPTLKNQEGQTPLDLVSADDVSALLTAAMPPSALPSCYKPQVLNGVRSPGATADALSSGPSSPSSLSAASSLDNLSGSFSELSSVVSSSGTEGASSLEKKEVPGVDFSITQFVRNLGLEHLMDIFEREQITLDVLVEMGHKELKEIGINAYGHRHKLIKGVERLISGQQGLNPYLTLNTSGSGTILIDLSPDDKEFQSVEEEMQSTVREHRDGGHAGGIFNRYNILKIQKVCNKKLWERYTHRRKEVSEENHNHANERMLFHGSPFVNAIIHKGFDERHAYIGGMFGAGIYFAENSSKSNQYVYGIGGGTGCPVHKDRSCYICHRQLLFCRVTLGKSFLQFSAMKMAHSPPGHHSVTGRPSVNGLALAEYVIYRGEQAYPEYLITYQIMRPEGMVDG
test protocol: Inhibition of recombinant human N-terminal TEV cleavage site-fused/FLAG-poly his-tagged TNKS2 ARC5-SAM-PARP domain (613 to 1166 residues) expressed in Escherichia coli assessed as reduction in auto-PARylation preincubated for 10 mins followed by biotinylated-NAD+ addition and measured after 45 mins by ELISA
endpoint: IC50 (nM)

chemical string	IC50 / nM
COCCOc1cc(F)c2c(c1)N(C)C(=O)C21CCN(c2nc3c(c(=O)[nH]2)CCCN3C)CC1	6.4

[P] Cc1cccc2c(=O)[nH]c(N3CCC4(CC3)CN(CCO)c3cc(F)cc(F)c34)nc12
[Q] CN1CCCc2c1nc(N1CCC3(CC1)C(=O)N(C)c1cc(OCCO)cc(F)c13)[nH]c2=O
IN: Returns the identifier with the smallest measured IC50 among P and Q . Identify your selection by its label.
OUT: Q

[I] COc1cc(F)c2c(c1)N(C)C(=O)C21CCN(c2nc3c(c(=O)[nH]2)CCCN3C)CC1
[II] CN1CCCc2c1nc(N1CCC3(CC1)C(=O)N(C)c1cc(F)cc(F)c13)[nH]c2=O
IN: Pick one: I or II . Which has the bigger IC50 number? Pick one and reply with its label.
OUT: II
